Catalogue of activity readings, one per entry.
# Test system: Alu I restriction endonuclease
# Assay Info: cleavage_in_vitro
# Protocol Conditions: first strand cleavage rate constant; 13 uM (AT)2 competitor

Input Sequence	activity [min⁻¹]
AAAAAAAGCTTTTTTT (double strand) [(AA)3 AGCT(TT)3]	0.0039
AAAAAAAAAGCTTTTTTTTT (double strand) [(AA)4 AGCT(TT)4]	0.0031
ATATATAGCTATATAT (double strand) [(AT)3 AGCT(AT)3]	0.0115
ATATATATAGCTATATATAT (double strand) [(AT)4 AGCT(AT)4]	0.0093
AAAAAGCTTTTT (double strand) [(AA)2 AGCT(TT)2]	0.0063
AAATATAGCTATATTT (double strand) [(AA)(AT)2 AGCT(AT)2 TT]	0.0077
